Give pKd for every item shown.
Target: rat mGlu2 SNAP-tagged receptor (rat, UniProt P31421 19-872, SNAP tag labelled with SNAP-Lumi4-Tb)
Sequence (P31421 19-872): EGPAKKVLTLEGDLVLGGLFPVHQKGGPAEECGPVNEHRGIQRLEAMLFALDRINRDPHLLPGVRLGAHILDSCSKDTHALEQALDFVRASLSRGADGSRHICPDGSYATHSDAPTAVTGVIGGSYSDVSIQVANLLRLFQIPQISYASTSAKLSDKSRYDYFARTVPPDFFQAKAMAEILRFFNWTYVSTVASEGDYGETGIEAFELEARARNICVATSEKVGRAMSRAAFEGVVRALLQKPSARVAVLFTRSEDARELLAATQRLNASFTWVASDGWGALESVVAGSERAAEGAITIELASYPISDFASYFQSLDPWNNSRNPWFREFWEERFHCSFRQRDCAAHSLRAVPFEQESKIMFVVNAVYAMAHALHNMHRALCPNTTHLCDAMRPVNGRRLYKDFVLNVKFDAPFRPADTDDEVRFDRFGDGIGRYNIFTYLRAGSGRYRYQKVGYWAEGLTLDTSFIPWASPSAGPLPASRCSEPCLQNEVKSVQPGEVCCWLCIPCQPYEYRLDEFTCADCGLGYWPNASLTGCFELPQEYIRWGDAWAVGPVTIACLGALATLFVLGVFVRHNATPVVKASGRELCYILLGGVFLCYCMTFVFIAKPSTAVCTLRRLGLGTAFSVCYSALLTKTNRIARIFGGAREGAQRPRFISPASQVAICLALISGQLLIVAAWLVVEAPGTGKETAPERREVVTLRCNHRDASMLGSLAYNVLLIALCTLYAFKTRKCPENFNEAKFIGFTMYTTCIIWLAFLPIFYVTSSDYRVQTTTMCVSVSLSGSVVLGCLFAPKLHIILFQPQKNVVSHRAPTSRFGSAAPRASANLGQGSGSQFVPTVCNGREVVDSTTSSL
Assay: TR-FRET on HEK-293 cells with SNAP-tagged rat mGlu2, anti-6His-d2; inactive conformation
Give bare numbers, in pKd.

Quick request: pKd for each listed item, please.
1. IGF-1252 (IGF-1159 HcAb IGF-1168) (bispecific antibody) QVQLVQSGGGLVQAGGSLRLSCAASGRTFSSFAMAWFRQAPGKEREFVAAISWSGSTGHADSVKGRFTITRDNAKNTVFLQMNSLKPEDTAVYYCALGKGSSYYYSPSGYDYWGQGTQVTVSSEPKIPQPQPKPQPQPQPQPQPKPQPKPEPQVQLVQSGGGLVQAGGSLRLSCAASVRFFSINTMGWYRQAPGKQRELVADITSSGSTNYADSGKGRFTISRDNAKNTVYLQMNRLKPEDTAVYYCHADYKYTTHNTAWGQGTQVTVSS
2. IGF-1201 (IGF-1168 GS IGF-1159) (bispecific antibody) QVQLVQSGGGLVQAGGSLRLSCAASVRFFSINTMGWYRQAPGKQRELVADITSSGSTNYADSGKGRFTISRDNAKNTVYLQMNRLKPEDTAVYYCHADYKYTTHNTAWGQGTQVTVSSGGGGSGGGGSGGGGSQVQLVQSGGGLVQAGGSLRLSCAASGRTFSSFAMAWFRQAPGKEREFVAAISWSGSTGHADSVKGRFTITRDNAKNTVFLQMNSLKPEDTAVYYCALGKGSSYYYSPSGYDYWGQGTQVTVSS
3. IGF-1251 (IGF-1159 GS IGF-1168) (bispecific antibody) QVQLVQSGGGLVQAGGSLRLSCAASGRTFSSFAMAWFRQAPGKEREFVAAISWSGSTGHADSVKGRFTITRDNAKNTVFLQMNSLKPEDTAVYYCALGKGSSYYYSPSGYDYWGQGTQVTVSSGGGGSGGGGSGGGGSQVQLVQSGGGLVQAGGSLRLSCAASVRFFSINTMGWYRQAPGKQRELVADITSSGSTNYADSGKGRFTISRDNAKNTVYLQMNRLKPEDTAVYYCHADYKYTTHNTAWGQGTQVTVSS
4. biparatopic IGF1202 (construct IGF1168-linker sequence L1-IGF1159) (bispecific antibody) QVQLVQSGGGLVQAGGSLRLSCAASVRFFSINTMGWYRQAPGKQRELVADITSSGSTNYADSGKGRFTISRDNAKNTVYLQMNRLKPEDTAVYYCHADYKYTTHNTAWGQGTQVTVSSEPKIPQPQPKPQPQPQPQPQPKPQPKPEPQVQLVQSGGGLVQAGGSLRLSCAASGRTFSSFAMAWFRQAPGKEREFVAAISWSGSTGHADSVKGRFTITRDNAKNTVFLQMNSLKPEDTAVYYCALGKGSSYYYSPSGYDYWGQGTQVTVSSLEHHHHHH

8.49
8.95
8.54
8.87
